Source: PubChem BioAssay

Recorded measurements of viability decrease, one per entry
Assay: growth inhibition of GSK3B-pretreated HCT116 cells – cell-based, CellTiter-Glo, 0.2 to 20 µM (AID 1117336)
Conditions: HCT116 viability after GSK3B inhibitor, at 20 µM, active compounds read high
Numbers only; they are read as %.

Solved entries:
CCOC(=O)[C@H](CCc1ccccc1)N[C@H]1CS[C@H](c2cccs2)CN(CC(=O)O)C1=O -8.8
O=[N+]([O-])c1ccc(O)c2ncccc12 95.8

Could you now consider this next compound?
Provide measured viability decrease value, entry: C[C@]12CCC(=O)C=C1CC[C@H]1[C@@H]3CC[C@](O)(C(=O)CO)[C@@]3(C)C[C@H](O)[C@@]12F
-81.6
